Test system: COLO 205 colon
measurement protocol: NCI tumour cell line growth inhibition, 48 h
Field: GI50. Provide a value for each of the molecules that follow.

Here are 3 molecules together with their reported answers.
>>> result("CCCN(CCS(C)(=O)=O)Cc1ccc(-c2ccc3ncnc(Nc4ccc(OCc5cccc(F)c5)c(Cl)c4)c3c2)o1")
"> 25 µM"
>>> result("COc1ccc2c(c1)N(CCO)C1=C(C(=O)OC1)C2c1cccc(F)c1 (stereo unspecified)")
"0.526 µM"
>>> result("O=C(/C=C\\c1cccc([N+](=O)[O-])c1)/C=C/c1cccc([N+](=O)[O-])c1")
"3.03 µM"

Answer for every listed entry: what is its GI50? The entries follow.
1. CCCCCCCCCCCCCCCCCC1=NCCN1CCOC1=C(Cl)C(=O)c2ccccc2C1=O
2. O=S(=O)(c1ccc(Cl)cc1)C(Cl)(Cl)Cl
3. N#Cc1c(N2CCOCC2)nc(=S)[nH]c1-c1ccco1

Result:
1. 1.67 µM
2. 3.38 µM
3. 5.7 µM
